Test system: B6C3F1 mice, intracerebral ependymoblastoma, median survival T/C
Assay: NCI In Vivo Anticancer Drug Screen. Data for tumor model Ependymoblastoma (intracerebral) in B6C3F1 mice
Conditions: endpoint: median survival time; dose: 64.0 mg/kg/injection; schedule: Q01DX005 (ip); vehicle: saline
Inconclusive results and toxic doses are left out. The calls were made as follows: active = survival T/C of 150% or more; inactive = T/C below 125% in these data.
Write down the outcome that applies. Available outcomes: active, inactive

How did this test come out for CN(C)/N=N/c1[nH]ncc1C(N)=O ? active

* * *

T/C values for the molecules below.
Test system: B6C3F1 mice, intracerebral ependymoblastoma, median survival T/C
Test: NCI In Vivo Anticancer Drug Screen. Data for tumor model Ependymoblastoma (intracerebral) in B6C3F1 mice
Conditions: endpoint: median survival time; dose: 25.0 mg/kg/injection; schedule: Q01DX005 (ip); vehicle: saline; higher = longer survival
Toxic doses and inconclusive results are not listed.

Consider the worked cases shown below.
- molecule: "COc1c(C)c2c(c(O)c1C/C=C(\\C)CCC(=O)O)C(=O)OC2"
  studySystem: "B6C3F1 mice, intracerebral ependymoblastoma, median survival T/C"
  T/C: "105 % of control"
- molecule: "Nc1ncnc2c1ncn2C1OC(COP(=O)(O)O)C(O)C1O (stereo not drawn)"
  studySystem: "B6C3F1 mice, intracerebral ependymoblastoma, median survival T/C"
  T/C: "100 % of control"
- molecule: "COc1ccc2c(c1OC(C)=O)-c1cc(OC(C)=O)cc3c1C(C2)N(C(=O)CBr)CC3 (stereo not drawn)"
  studySystem: "B6C3F1 mice, intracerebral ependymoblastoma, median survival T/C"
  T/C: "96 % of control"
- molecule: "CN(N=O)C(=O)N[C@@H](C=O)[C@@H](O)[C@H](O)[C@H](O)CO"
  studySystem: "B6C3F1 mice, intracerebral ependymoblastoma, median survival T/C"
  T/C: "122 % of control"
- molecule: "CN(C)C1=CC(=O)C(N(C)C)=CC1=O"
  studySystem: "B6C3F1 mice, intracerebral ependymoblastoma, median survival T/C"
  T/C: "101 % of control"
- molecule: "Cc1cc2nc3ccc(N)cc3oc-2cc1=[N+](C)C"
  studySystem: "B6C3F1 mice, intracerebral ependymoblastoma, median survival T/C"
  T/C: "102 % of control"
- molecule: "COC1OC(CNC(=O)N(C)N=O)C(O)C(O)C1O (stereo not drawn)"
  studySystem: "B6C3F1 mice, intracerebral ependymoblastoma, median survival T/C"
  T/C: "124 % of control"

# evaluate next
Request the reported T/C associated with CC(=O)OCC1OC(n2cnc3c(=S)nc(N)[nH]c32)C(OC(C)=O)C1OC(C)=O (stereo not drawn) 104 % of control

* * *

System: B6C3F1 mice, intracerebral ependymoblastoma, median survival T/C
Test: NCI In Vivo Anticancer Drug Screen. Data for tumor model Ependymoblastoma (intracerebral) in B6C3F1 mice
Details: endpoint: median survival time; dose: 24.0 mg/kg/injection; schedule: Q01DX005 (ip); vehicle: Klucel (hydroxypropylcellulose) (HPC)
Inconclusive results and toxic doses are left out. The calls were made as follows: active = survival T/C of 150% or more; inactive = T/C below 125% in these data.
Response enum: active, inactive

- compound: "O=NN(CCF)C(=O)NC1CCCCC1"
  group: "active"

Identify the outcome logged in this assay for the compound shown: O=NN(CCF)C(=O)NC1CCC(=O)NC1=O (stereo not given) active

Lab log entry: O=NN(CCF)C(=O)NC1C(O)CCCC1O (stereo not given) — outcome as called in the assay? inactive

Recorded test outcome, item O=NN(CCCl)C(=O)NC1CCCCC1 active

Which outcome did this test record for the compound O=NN(CCF)C(=O)NCCO ? active

* * *

Listing of entries alongside the reported T/C.
Tested on: B6C3F1 mice, intracerebral ependymoblastoma, median survival T/C
Test: NCI In Vivo Anticancer Drug Screen. Data for tumor model Ependymoblastoma (intracerebral) in B6C3F1 mice
Details: endpoint: median survival time; dose: 16.0 mg/kg/injection; schedule: Q01DX005 (ip); vehicle: Klucel (hydroxypropylcellulose) (HPC); higher = longer survival
Toxic doses and inconclusive results are not listed.

Field: example entries. Status: answers known.
- compound: "CN(N=O)C(N)=O"
  studySystem: "B6C3F1 mice, intracerebral ependymoblastoma, median survival T/C"
  T/C: "118 % of control"
- compound: "COc1ccc2c(c1)CCC(c1ccccc1)=C2c1ccc(OCCN2CCCC2)cc1"
  studySystem: "B6C3F1 mice, intracerebral ependymoblastoma, median survival T/C"
  T/C: "106 % of control"
- compound: "CCCCCC(=O)O[C@]1(C(C)=O)CC[C@H]2[C@@H]3CCC4=CC(=O)CC[C@]4(C)[C@H]3CC[C@@]21C"
  studySystem: "B6C3F1 mice, intracerebral ependymoblastoma, median survival T/C"
  T/C: "106 % of control"

Query (compound): Nc1nc([Se])c2ncn(C3OC(CO)C(O)C3O)c2n1 (centres undefined) ; field requested: T/C 106 % of control

* * *

Test system: B6C3F1 mice, intracerebral ependymoblastoma, median survival T/C
Assay: NCI In Vivo Anticancer Drug Screen. Data for tumor model Ependymoblastoma (intracerebral) in B6C3F1 mice
Details: endpoint: median survival time; dose: 512.0 mg/kg/injection; schedule: Q01DX005 (ip); vehicle: Klucel (hydroxypropylcellulose) (HPC); higher = longer survival
Experimental: The antitumor activity of compounds was measured in mice bearing transplantable tumors. Survival or tumor size were measured and the results are expressed as the measurement made in the treated group (T) divided by the measurement made in the vehicle treated control group (C). The tumor model used in this assay is Ependymoblastoma (intracerebral) in B6C3F1 mice
Inconclusive results and toxic doses are left out.
measuredEndpoint: T/C

Example entries and their recorded answers appear below.
- compound: "C[C@]1(O)CC[C@H]2[C@@H]3CCC4=CC(=O)CC[C@]4(C)[C@@]3(F)[C@@H](O)C[C@@]21C"
  measuredEndpoint: "T/C"
  measured: "91 % of control"
- compound: "COCC(O)Cn1ccnc1[N+](=O)[O-] (configuration not stated)"
  measuredEndpoint: "T/C"
  measured: "96 % of control"
- compound: "CCC(=O)O[C@H]1CC[C@H]2[C@@H]3CC[C@H]4CC(=O)[C@H](C)C[C@]4(C)[C@H]3CC[C@]12C"
  measuredEndpoint: "T/C"
  measured: "87 % of control"
- compound: "Cc1c[nH]c(=O)[nH]c1=O"
  measuredEndpoint: "T/C"
  measured: "95 % of control"
- compound: "CCOC(=O)CNC(=O)CCCCSc1ncnc2nc[nH]c12"
  measuredEndpoint: "T/C"
  measured: "96 % of control"
- compound: "CCCCCC(=O)O[C@]1(C(C)=O)CC[C@H]2[C@@H]3CCC4=CC(=O)CC[C@]4(C)[C@H]3CC[C@@]21C"
  measuredEndpoint: "T/C"
  measured: "95 % of control"

Report T/C for Nc1ncnc2c1ncn2C1OC(CO)C(O)C1O (configuration not stated) please. 94 % of control

* * *

System: B6C3F1 mice, intracerebral ependymoblastoma, median survival T/C
Assay: NCI In Vivo Anticancer Drug Screen. Data for tumor model Ependymoblastoma (intracerebral) in B6C3F1 mice
Conditions: endpoint: median survival time; dose: 25.0 mg/kg/injection; schedule: Q01DX005 (ip); vehicle: saline with Tween-80; higher = longer survival
Inconclusive results and toxic doses are left out.
measuredEndpoint: T/C

- compound: "Nc1ccc(S(N)(=O)=O)cc1"
  studySystem: "B6C3F1 mice, intracerebral ependymoblastoma, median survival T/C"
  T/C: "98 % of control"
- compound: "CCCC(=O)OCC1OC(n2cnc3c(=S)nc[nH]c32)C(OC(=O)CCC)C1OC(=O)CCC (stereo not given)"
  studySystem: "B6C3F1 mice, intracerebral ependymoblastoma, median survival T/C"
  T/C: "103 % of control"
- compound: "CCCCC(=O)OCC1OC(n2cnc3c(=S)nc[nH]c32)C(OC(=O)CCCC)C1OC(=O)CCCC (stereo not given)"
  studySystem: "B6C3F1 mice, intracerebral ependymoblastoma, median survival T/C"
  T/C: "116 % of control"
- compound: "Nc1ccc(S(=O)(=O)c2ccc(N)cc2)cc1"
  studySystem: "B6C3F1 mice, intracerebral ependymoblastoma, median survival T/C"
  T/C: "122 % of control"
- compound: "Cc1cnc(/C=N\\NC(N)=S)c2cccc(N)c12"
  studySystem: "B6C3F1 mice, intracerebral ependymoblastoma, median survival T/C"
  T/C: "103 % of control"

Lab note: need T/C for Nc1nc(SCc2ccccc2F)c2ncn(C3OC(CO)C(O)C3O)c2n1 (stereo not given) on B6C3F1 mice, intracerebral ependymoblastoma, median survival T/C, anyone have it? 122 % of control

Reported T/C for B6C3F1 mice, intracerebral ependymoblastoma, median survival T/C, given CC(C)(N)C(=O)O ? 114 % of control

Please state recorded T/C (tested on B6C3F1 mice, intracerebral ependymoblastoma, median survival T/C) of Nc1nc(=S)c2ncn(C3OC(COC(=O)c4ccccc4)C(OC(=O)c4ccccc4)C3OC(=O)c3ccccc3)c2[nH]1 (stereo not given) 100 % of control

Notebook entry, B6C3F1 mice, intracerebral ependymoblastoma, median survival T/C assay: T/C of O=[n+]1c2ccccc2n([O-])c2cc(Cl)ccc21 = ? 106 % of control

# value lookup — system B6C3F1 mice, intracerebral ependymoblastoma, median survival T/C, readout T/C, item O=c1n(CC2CO2)c(=O)n(CC2CO2)c(=O)n1CC1CO1 (stereo not given) 98 % of control
